The measurements presented in this section are drawn from paper PMC4428793.

- Test system: Caco-2/TC7 cell lysate
- Measurement Protocol: Flavonol conjugate production by Caco-2/TC7 cell free lysate, effect of MK571
- Type: biochemical, human
- Assay Setup: aglycone 40 μM, MK571 50 μM; slope (standard error of the slope)
Endpoint: Rate +MK571 (conjugate production)

Solved cases (2 shown):
1) O=C(O)[C@H]1O[C@@H](Oc2cc(O)c3c(=O)c(O)c(-c4ccc(O)cc4)oc3c2)[C@H](O)[C@@H](O)[C@@H]1O [K-7-GlcA, kaempferol-7-glucuronide] = 0.69 (±0.02) pmol/h
2) O=C(O)[C@H]1O[C@@H](Oc2c(-c3ccc(O)c(O)c3)oc3cc(O)cc(O)c3c2=O)[C@H](O)[C@@H](O)[C@@H]1O [Q-3-GlcA] = 0.83 (±0.14) pmol/h

Turning now to a further record.
Record for O=C(O)[C@H]1O[C@@H](Oc2cc(O)c3c(=O)c(O)c(-c4ccc(O)c(O)c4)oc3c2)[C@H](O)[C@@H](O)[C@@H]1O [Q-7-GlcA] under target or system Caco-2/TC7 cell lysate: Rate +MK571 (conjugate production) reported as 1.29 (±0.26) pmol/h

* * *

- Test system: Caco-2/TC7 cell lysate
- Measurement Protocol: Flavonol conjugate production by Caco-2/TC7 cell free lysate, effect of MK571
- Assay type: biochemical, human
- Assay Setup: aglycone 40 μM, no MK571; slope (standard error of the slope)
- Method: Cells were grown until 21 days post confluent and washed and aspirated as described previously. The cells were then scraped into tubes and these tubes kept on ice at all times throughout the preparation procedure. […] The supernatant was removed and analysed via HPLC.
Listing of entries alongside the reported Rate control (conjugate production).

Solved cases (4 shown):
1. O=C(O)[C@H]1O[C@@H](Oc2cc(-c3oc4cc(O)cc(O)c4c(=O)c3O)ccc2O)[C@H](O)[C@@H](O)[C@@H]1O [Q-3′-GlcA] = 2.09 (±0.12) pmol/h
2. O=C(O)[C@H]1O[C@@H](Oc2ccc(-c3oc4cc(O)cc(O)c4c(=O)c3O)cc2O)[C@H](O)[C@@H](O)[C@@H]1O [Q-4′-GlcA] = 0.25 (±0.01) pmol/h
3. O=C(O)[C@H]1O[C@@H](Oc2c(-c3ccc(O)cc3)oc3cc(O)cc(O)c3c2=O)[C@H](O)[C@@H](O)[C@@H]1O [K-3-GlcA, kaempferol-3-glucuronide] = 1.73 (±0.16) pmol/h
4. O=C(O)[C@H]1O[C@@H](Oc2c(-c3ccc(O)c(O)c3)oc3cc(O)cc(O)c3c2=O)[C@H](O)[C@@H](O)[C@@H]1O [Q-3-GlcA] = 1.05 (±0.09) pmol/h

Turning now to a further record.
Looking up O=C(O)[C@H]1O[C@@H](Oc2cc(O)c3c(=O)c(O)c(-c4ccc(O)cc4)oc3c2)[C@H](O)[C@@H](O)[C@@H]1O [K-7-GlcA, kaempferol-7-glucuronide] , I found its Rate control (conjugate production) recorded as 1.12 (±0.09) pmol/h

* * *

- Tested on: Caco-2/TC7 cell lysate
- Measurement Protocol: Flavonol conjugate production by Caco-2/TC7 cell free lysate, effect of MK571
- Assay type: biochemical, human
- Assay Setup: aglycone 40 μM, no MK571; slope (standard error of the slope)
Endpoint: Rate control (conjugate production)

1) O=C(O)[C@H]1O[C@@H](Oc2c(-c3ccccc3)oc3cc(O)cc(O)c3c2=O)[C@H](O)[C@@H](O)[C@@H]1O [G-3-GlcA, galangin-3-glucuronide] = 68.8 (±6.12) pmol/h
2) O=C(O)[C@H]1O[C@@H](Oc2cc(O)c3c(=O)c(O)c(-c4ccccc4)oc3c2)[C@H](O)[C@@H](O)[C@@H]1O [G-7-GlcA, galangin-7-glucuronide] = 36.5 (±1.49) pmol/h

Turning now to a further record.
Looking up O=C(O)[C@H]1O[C@@H](Oc2cc(O)c3c(=O)c(O)c(-c4ccc(O)c(O)c4)oc3c2)[C@H](O)[C@@H](O)[C@@H]1O [Q-7-GlcA] , I found its Rate control (conjugate production) recorded as 1.89 (±0.16) pmol/h

* * *

- Test system: Caco-2/TC7 cells
- Measurement Protocol: Flavonol metabolism and transport experiments on Caco-2/TC7 transwell monolayers, effect of MK571
- Type: cell-based, human
- Assay Setup: apical to basolateral ratio of efflux of the conjugate, 60 min, 12-well transwells
Endpoint: Ap:Bl ratio (50 μM MK571)

Solved cases (5 shown):
1) O=C(O)[C@H]1O[C@@H](Oc2c(-c3ccccc3)oc3cc(O)cc(O)c3c2=O)[C@H](O)[C@@H](O)[C@@H]1O [G-3-GlcA, galangin-3-glucuronide] = 0.35 (±0.091)
2) O=C(O)[C@H]1O[C@@H](Oc2cc(O)c3c(=O)c(O)c(-c4ccc(O)cc4)oc3c2)[C@H](O)[C@@H](O)[C@@H]1O [K-7-GlcA, kaempferol-7-glucuronide] = 0.35 (±0.063)
3) O=C(O)[C@H]1O[C@@H](Oc2cc(O)c3c(=O)c(O)c(-c4ccccc4)oc3c2)[C@H](O)[C@@H](O)[C@@H]1O [G-7-GlcA, galangin-7-glucuronide] = 0.51 (±0.036)
4) O=C(O)[C@H]1O[C@@H](Oc2cc(-c3oc4cc(O)cc(O)c4c(=O)c3O)ccc2O)[C@H](O)[C@@H](O)[C@@H]1O = 100% apical
5) O=C(O)[C@H]1O[C@@H](Oc2ccc(-c3oc4cc(O)cc(O)c4c(=O)c3O)cc2O)[C@H](O)[C@@H](O)[C@@H]1O = 0.25 (±0.035)

Record for O=C(O)[C@H]1O[C@@H](Oc2ccc(-c3oc4cc(O)cc(O)c4c(=O)c3O)cc2)[C@H](O)[C@@H](O)[C@@H]1O [K-4′-GlcA, kaempferol-4′-glucuronide] under target or system Caco-2/TC7 cells: Ap:Bl ratio (50 μM MK571) reported as 0.33 (±0.080)

Record for O=C(O)C1OC(Oc2cc(O)cc3oc(-c4ccccc4)c(O)c(=O)c23)C(O)C(O)C1O (stereo not shown) under target or system Caco-2/TC7 cells: Ap:Bl ratio (50 μM MK571) reported as 0.30 (±0.024)
